- assay.target: human CB1 receptor (Homo sapiens)
- Construct: expressed in transfected cells; membrane-enriched fractions
- Sequence (P21554 whole entry): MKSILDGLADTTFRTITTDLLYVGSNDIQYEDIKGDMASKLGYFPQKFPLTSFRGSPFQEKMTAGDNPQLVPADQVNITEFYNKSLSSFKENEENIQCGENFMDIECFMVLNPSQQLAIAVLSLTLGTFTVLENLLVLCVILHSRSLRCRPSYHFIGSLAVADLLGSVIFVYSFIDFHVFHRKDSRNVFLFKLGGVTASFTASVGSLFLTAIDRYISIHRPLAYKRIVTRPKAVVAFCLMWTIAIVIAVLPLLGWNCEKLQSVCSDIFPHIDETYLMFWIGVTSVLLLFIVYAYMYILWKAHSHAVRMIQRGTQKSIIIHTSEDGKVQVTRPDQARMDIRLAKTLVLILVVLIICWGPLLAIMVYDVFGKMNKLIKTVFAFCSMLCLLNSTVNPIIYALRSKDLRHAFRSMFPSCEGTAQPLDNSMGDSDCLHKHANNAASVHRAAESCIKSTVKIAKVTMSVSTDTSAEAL
- protocol.description: competitive radioligand binding assay, displacement of [3H]CP55,940, CB1
- experimental.context: Table 2; percent inhibition at 10 μM
property.measured: inhibition at 10 µM (%)
Give just the number in %; leave the unit off.

- compound.structure.string: "COc1ccc(CNC(=O)Cn2nc(-c3ccc(Cl)cc3)c(-c3ccc(Cl)cc3Cl)n2)cc1OC"
  inhibition at 10 µM, %: 82.1
- compound.structure.string: "O=C(Cn1nc(-c2ccc(Cl)cc2Cl)c(-c2ccc(Cl)cc2Cl)n1)N[C@H]1c2ccccc2C[C@H]1O"
  inhibition at 10 µM, %: 89.4
- compound.structure.string: "CCCCCNC(=O)n1nc(-c2ccc(Cl)cc2)c(-c2ccc(Cl)cc2)n1"
  inhibition at 10 µM, %: 8.4

Name the reported inhibition at 10 µM value associated with the compound O=C(NC1CCCCC1)n1nc(-c2ccc(Cl)cc2)c(-c2ccc(Cl)cc2Cl)n1
30.5
